system: UGT1A1 (Homo sapiens, UniProt P22309)
Sequence (P22309 26-533): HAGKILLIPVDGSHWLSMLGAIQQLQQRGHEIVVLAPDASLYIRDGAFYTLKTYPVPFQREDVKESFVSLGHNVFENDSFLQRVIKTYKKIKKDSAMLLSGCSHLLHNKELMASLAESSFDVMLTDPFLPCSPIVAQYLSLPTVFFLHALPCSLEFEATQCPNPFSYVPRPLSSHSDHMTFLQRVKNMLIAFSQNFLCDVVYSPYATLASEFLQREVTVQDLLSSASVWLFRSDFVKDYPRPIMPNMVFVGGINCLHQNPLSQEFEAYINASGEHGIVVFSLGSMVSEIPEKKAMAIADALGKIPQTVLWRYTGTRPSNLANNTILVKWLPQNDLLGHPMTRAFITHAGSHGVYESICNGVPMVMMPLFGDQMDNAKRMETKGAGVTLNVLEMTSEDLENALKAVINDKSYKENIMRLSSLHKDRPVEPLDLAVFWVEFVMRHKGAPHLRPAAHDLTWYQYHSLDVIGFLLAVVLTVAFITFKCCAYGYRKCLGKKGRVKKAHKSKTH
experiment: Inhibition of UGT1A1-mediated bilirubin glucuronidation by sorafenib
Type: biochemical
Where a name gives a salt, the structure may show the parent alone.
reported metric: IC50

- CNC(=O)c1cc(Oc2ccc(NC(=O)Nc3ccc(Cl)c(C(F)(F)F)c3)cc2)ccn1 [sorafenib, Sorafenib tosylate]: 18 µM
